SYSTEM UNDER TEST: UniProt Q96EB6
Sequence (Q96EB6 whole entry): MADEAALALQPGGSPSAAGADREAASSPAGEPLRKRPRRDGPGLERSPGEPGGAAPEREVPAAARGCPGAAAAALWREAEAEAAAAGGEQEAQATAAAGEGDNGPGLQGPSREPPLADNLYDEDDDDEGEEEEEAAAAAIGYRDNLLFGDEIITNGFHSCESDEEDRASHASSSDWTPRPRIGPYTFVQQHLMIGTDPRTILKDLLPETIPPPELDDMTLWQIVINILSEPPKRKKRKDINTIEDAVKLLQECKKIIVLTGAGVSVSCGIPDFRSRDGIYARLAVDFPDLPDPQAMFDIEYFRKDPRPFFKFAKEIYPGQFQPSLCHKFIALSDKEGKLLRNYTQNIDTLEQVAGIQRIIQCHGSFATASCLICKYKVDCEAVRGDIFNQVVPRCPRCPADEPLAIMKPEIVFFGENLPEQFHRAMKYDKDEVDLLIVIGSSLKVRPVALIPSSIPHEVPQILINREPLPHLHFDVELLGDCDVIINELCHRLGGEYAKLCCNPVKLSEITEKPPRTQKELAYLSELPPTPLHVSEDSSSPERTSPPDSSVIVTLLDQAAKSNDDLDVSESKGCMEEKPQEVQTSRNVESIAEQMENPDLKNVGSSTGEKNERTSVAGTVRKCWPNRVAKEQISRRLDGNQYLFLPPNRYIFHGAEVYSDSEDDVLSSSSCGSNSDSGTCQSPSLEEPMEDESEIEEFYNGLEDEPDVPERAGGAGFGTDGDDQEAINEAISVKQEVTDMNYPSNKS
ASSAY DETAILS: Inhibition of full length human SIRT1 expressed in Escherichia coli BL21 (DE3) cells at 100 uM using fluorogenic 7-amino-4-methylcoumarin (AMC)-labeled peptide by fluorescence assay

[
  {
    "SUBSTANCE SMILES": "Nc1cccc(C(=O)Nc2ccc(S(=O)(=O)O)c3ccccc23)c1",
    "inhibition": "< 10%"
  },
  {
    "SUBSTANCE SMILES": "NC(=O)c1ccc(Oc2ccc3ccccc3c2)cc1",
    "inhibition": "< 10%"
  },
  {
    "SUBSTANCE SMILES": "NC(=O)c1ccc(Sc2cccc3ccccc23)nc1",
    "inhibition": "40%"
  },
  {
    "SUBSTANCE SMILES": "Cc1ccc(C(=O)Nc2cccc3cc(S(=O)(=O)O)ccc23)cc1[N+](=O)[O-]",
    "inhibition": "19%"
  },
  {
    "SUBSTANCE SMILES": "NC(=O)c1ccc(Nc2cccc3ccccc23)cc1",
    "inhibition": "< 10%"
  },
  {
    "SUBSTANCE SMILES": "Cc1ccc(C(=O)Nc2ccc(S(=O)(=O)O)c3ccccc23)cc1",
    "inhibition": "22%"
  },
  {
    "SUBSTANCE SMILES": "Cc1ccc(C(=O)Nc2ccc(S(=O)(=O)O)c3ccccc23)cc1N",
    "inhibition": "11%"
  },
  {
    "SUBSTANCE SMILES": "NC(=O)c1ccc(Nc2ccc3ccccc3c2)cc1",
    "inhibition": "< 10%"
  },
  {
    "SUBSTANCE SMILES": "NC(=O)c1ccc(Sc2ccc3ccccc3c2)cc1",
    "inhibition": "20%"
  },
  {
    "SUBSTANCE SMILES": "NC(=O)c1ccc(Sc2ccc3ccccc3c2)nc1",
    "inhibition": "31%"
  },
  {
    "SUBSTANCE SMILES": "NC(=O)c1cccc(Oc2cccc3ccccc23)c1",
    "inhibition": "35%"
  },
  {
    "SUBSTANCE SMILES": "NC(=O)c1ccc(Nc2ccc3ccccc3c2)nc1",
    "inhibition": "< 10%"
  }
]
